Values were extracted from ChEMBL document CHEMBL1649522.

experiment: Cmin in healthy human at […], po administered as single dose after 12 hrs; format: ADME, organism-based; design: route oral; details: in vivo, read-out: Cmin
assay_readout: concentration at 12 h (nM)
Report as a plain number; the unit nM is understood.

In: Endpoint output: concentration at 12 h of Cc1nnc(C(=O)NC(C)(C)c2nc(C(=O)NCc3ccc(F)cc3)c(O)c(=O)n2C)o1 . Value?
Out: 92.1

====

assay: Tmax in healthy human at […], po BID for 14 days in presence of […], po rifampin; format: ADME, organism-based; settings: in vivo
assay_readout: Tmax (h)
Answer with a number only, understood to be in h.

In: Fill in: Tmax of Cc1nnc(C(=O)NC(C)(C)c2nc(C(=O)NCc3ccc(F)cc3)c(O)c(=O)n2C)o1 [RALTEGRAVIR] is ___
Out: 1.75

====

assay: Terminal half life in healthy human at […], po administered as single dose; type: ADME, organism-based; parameters: route oral; details: in vivo, read-out: beta t1/2 (converted)
assay_readout: half-life (h)
Field format: number, assumed h, no unit text.

In: Look up half-life: Cc1nnc(C(=O)NC(C)(C)c2nc(C(=O)NCc3ccc(F)cc3)c(O)c(=O)n2C)o1
Out: 8.5

====

experiment: AUC (0 to infinity) in healthy human at […], po administered as single dose; format: ADME, organism-based; set-up: time infinity, route oral; conditions: plasma
assay_readout: AUC(0-inf) (µM·h)
Output spec: scalar in µM·h, unitless text.

In: I'd like to know its AUC(0-inf). The compound in question is Cc1nnc(C(=O)NC(C)(C)c2nc(C(=O)NCc3ccc(F)cc3)c(O)c(=O)n2C)o1
Out: 27.6

====

assay: AUC (0 to infinity) in healthy human at […], po administered as single dose in presence of […], po rifampin; assay type: ADME, organism-based; design: route oral, time infinity; conditions: plasma
assay_readout: AUC(0-inf)
Please state the number and follow it with the unit.

In: Name the recorded AUC(0-inf) for Cc1nnc(C(=O)NC(C)(C)c2nc(C(=O)NCc3ccc(F)cc3)c(O)c(=O)n2C)o1 [RALTEGRAVIR] .
Out: 16.5 µM·h

====

test: Tmax in healthy human at […], po administered as single dose in presence of […], po rifampin; assay type: ADME, organism-based; conditions: in vivo
assay_readout: Tmax (h)
Kindly answer with a numeric value in h, unit omitted.

In: Record request: Tmax value, item Cc1nnc(C(=O)NC(C)(C)c2nc(C(=O)NCc3ccc(F)cc3)c(O)c(=O)n2C)o1 [RALTEGRAVIR]
Out: 3

====

assay: AUC(0 to 12 hrs) in healthy human at […], po BID for 4 days; type: ADME, organism-based; set-up: time < 12 hr, route oral; settings: plasma
assay_readout: AUC at 12 h (µM·h)
// units = µM·h; emit number, no label

In: Can you share its AUC at 12 h? I mean this compound: Cc1nnc(C(=O)NC(C)(C)c2nc(C(=O)NCc3ccc(F)cc3)c(O)c(=O)n2C)o1 [RALTEGRAVIR]
Out: 4.61

====

test: Cmax in healthy human at […], po administered as single dose; assay type: ADME, organism-based; set-up: route oral; conditions: in vivo
assay_readout: Cmax (µM)
Numbers only here, please. The scale is µM.

In: What Cmax value was documented for this molecule, Cc1nnc(C(=O)NC(C)(C)c2nc(C(=O)NCc3ccc(F)cc3)c(O)c(=O)n2C)o1 [RALTEGRAVIR] ?
Out: 8.61
